# System: HS578T
# experimentDescription: NCI SRB cytotoxicity, Breast HS578T
# Assay type: cell-based, human
# conditionInfo: 48 h
resultType: Log GI 50 (mol/L)

chemicalsmiles=COc1cc2c(cc1OCCCN1CCN(CCCOc3cc4c(cc3OC)C(=O)N3CCC[C@H]3C=N4)CC1)N=C[C@@H]1CCCN1C2=O numericreadout=−6.13
chemicalsmiles=COc1cc2c(cc1OCCCCCN1CCN(CCCCCOc3cc4c(cc3OC)C(=O)N3CCC[C@H]3C=N4)CC1)N=C[C@@H]1CCCN1C2=O numericreadout=−5.12
chemicalsmiles=COc1cc2c(cc1OCCN1CCN(CCOc3cc4c(cc3OC)C(=O)N3CCC[C@H]3C=N4)CC1)N=C[C@@H]1CCCN1C2=O numericreadout=−4.34
chemicalsmiles=COc1cc2c(cc1OCCCCN1CCN(CCCCOc3cc4c(cc3OC)C(=O)N3CCC[C@H]3C=N4)CC1)N=C[C@@H]1CCCN1C2=O numericreadout=−7.30

###

# System: MDA-MB-231/ATCC
# experimentDescription: NCI SRB cytotoxicity, Breast MDA-MB-231/ATCC
# Format: cell-based, human
# conditionInfo: 48 h
Entries annotated with measured Log LC 50
resultType: Log LC 50 (mol/L)

chemicalsmiles=COc1cc2c(cc1OCCCN1CCN(CCCOc3cc4c(cc3OC)C(=O)N3CCC[C@H]3C=N4)CC1)N=C[C@@H]1CCCN1C2=O numericreadout=−4.00
chemicalsmiles=COc1cc2c(cc1OCCCCN1CCN(CCCCOc3cc4c(cc3OC)C(=O)N3CCC[C@H]3C=N4)CC1)N=C[C@@H]1CCCN1C2=O numericreadout=−4.43
chemicalsmiles=COc1cc2c(cc1OCCCCCN1CCN(CCCCCOc3cc4c(cc3OC)C(=O)N3CCC[C@H]3C=N4)CC1)N=C[C@@H]1CCCN1C2=O numericreadout=−4.00
chemicalsmiles=COc1cc2c(cc1OCCN1CCN(CCOc3cc4c(cc3OC)C(=O)N3CCC[C@H]3C=N4)CC1)N=C[C@@H]1CCCN1C2=O numericreadout=−4.00

###

We begin with a simple list: items and their reported Log LC 50.
# System: SN12C
# experimentDescription: NCI SRB cytotoxicity, Renal SN12C
# Assay type: cell-based, human
# conditionInfo: 48 h
resultType: Log LC 50 (mol/L)

chemicalsmiles=COc1cc2c(cc1OCCN1CCN(CCOc3cc4c(cc3OC)C(=O)N3CCC[C@H]3C=N4)CC1)N=C[C@@H]1CCCN1C2=O numericreadout=−4.00
chemicalsmiles=COc1cc2c(cc1OCCCCCN1CCN(CCCCCOc3cc4c(cc3OC)C(=O)N3CCC[C@H]3C=N4)CC1)N=C[C@@H]1CCCN1C2=O numericreadout=−4.00
chemicalsmiles=COc1cc2c(cc1OCCCCN1CCN(CCCCOc3cc4c(cc3OC)C(=O)N3CCC[C@H]3C=N4)CC1)N=C[C@@H]1CCCN1C2=O numericreadout=−4.00
chemicalsmiles=COc1cc2c(cc1OCCCN1CCN(CCCOc3cc4c(cc3OC)C(=O)N3CCC[C@H]3C=N4)CC1)N=C[C@@H]1CCCN1C2=O numericreadout=−4.00

###

# Tested on: NCI-H322
# experimentDescription: NCI SRB cytotoxicity, Non-small-cell lung NCI-H322
# Type: cell-based, human
# conditionInfo: 48 h
resultType: Log GI 50 (mol/L)

chemicalsmiles=COc1cc2c(cc1OCCN1CCN(CCOc3cc4c(cc3OC)C(=O)N3CCC[C@H]3C=N4)CC1)N=C[C@@H]1CCCN1C2=O valueunits=mol/L numericreadout=−4.51
chemicalsmiles=COc1cc2c(cc1OCCCN1CCN(CCCOc3cc4c(cc3OC)C(=O)N3CCC[C@H]3C=N4)CC1)N=C[C@@H]1CCCN1C2=O valueunits=mol/L numericreadout=−4.57
chemicalsmiles=COc1cc2c(cc1OCCCCCN1CCN(CCCCCOc3cc4c(cc3OC)C(=O)N3CCC[C@H]3C=N4)CC1)N=C[C@@H]1CCCN1C2=O valueunits=mol/L numericreadout=−4.65
chemicalsmiles=COc1cc2c(cc1OCCCCN1CCN(CCCCOc3cc4c(cc3OC)C(=O)N3CCC[C@H]3C=N4)CC1)N=C[C@@H]1CCCN1C2=O valueunits=mol/L numericreadout=−7.59

###

# Tested on: RXF 393
# experimentDescription: NCI SRB cytotoxicity, Renal RXF 393
# Format: cell-based, human
# conditionInfo: RXF 393, Renal, 48 h
resultType: Log LC 50 (mol/L)

compound="COc1cc2c(cc1OCCN1CCN(CCOc3cc4c(cc3OC)C(=O)N3CCC[C@H]3C=N4)CC1)N=C[C@@H]1CCCN1C2=O [Compound VIa]" system="RXF 393" numericreadout=−4.00
compound="COc1cc2c(cc1OCCCCCN1CCN(CCCCCOc3cc4c(cc3OC)C(=O)N3CCC[C@H]3C=N4)CC1)N=C[C@@H]1CCCN1C2=O [Compound VId]" system="RXF 393" numericreadout=−5.09
compound="COc1cc2c(cc1OCCCCN1CCN(CCCCOc3cc4c(cc3OC)C(=O)N3CCC[C@H]3C=N4)CC1)N=C[C@@H]1CCCN1C2=O [Compound VIc]" system="RXF 393" numericreadout=−4.00
compound="COc1cc2c(cc1OCCCN1CCN(CCCOc3cc4c(cc3OC)C(=O)N3CCC[C@H]3C=N4)CC1)N=C[C@@H]1CCCN1C2=O [Compound VIb]" system="RXF 393" numericreadout=−4.09

###

# Tested on: KM-12
# experimentDescription: NCI SRB cytotoxicity, Colon KM-12
# Type: cell-based, human
# conditionInfo: KM-12, Colon, 48 h
resultType: Log LC 50

chemicalsmiles=COc1cc2c(cc1OCCCCN1CCN(CCCCOc3cc4c(cc3OC)C(=O)N3CCC[C@H]3C=N4)CC1)N=C[C@@H]1CCCN1C2=O result="−4.67 mol/L"
chemicalsmiles=COc1cc2c(cc1OCCCN1CCN(CCCOc3cc4c(cc3OC)C(=O)N3CCC[C@H]3C=N4)CC1)N=C[C@@H]1CCCN1C2=O result="−4.00 mol/L"
chemicalsmiles=COc1cc2c(cc1OCCN1CCN(CCOc3cc4c(cc3OC)C(=O)N3CCC[C@H]3C=N4)CC1)N=C[C@@H]1CCCN1C2=O result="−4.04 mol/L"
chemicalsmiles=COc1cc2c(cc1OCCCCCN1CCN(CCCCCOc3cc4c(cc3OC)C(=O)N3CCC[C@H]3C=N4)CC1)N=C[C@@H]1CCCN1C2=O result="−4.00 mol/L"

###

# Test system: RPMI-8226
# experimentDescription: NCI SRB cytotoxicity, Leukemia RPMI-8226
# Assay type: cell-based, human
# conditionInfo: RPMI-8226, Leukemia, 48 h
Quick list: Log LC 50 per entry.
resultType: Log LC 50 (mol/L)

chemicalsmiles=COc1cc2c(cc1OCCN1CCN(CCOc3cc4c(cc3OC)C(=O)N3CCC[C@H]3C=N4)CC1)N=C[C@@H]1CCCN1C2=O resulttype="Log LC 50" numericreadout=−4.33
chemicalsmiles=COc1cc2c(cc1OCCCN1CCN(CCCOc3cc4c(cc3OC)C(=O)N3CCC[C@H]3C=N4)CC1)N=C[C@@H]1CCCN1C2=O resulttype="Log LC 50" numericreadout=−4.00
chemicalsmiles=COc1cc2c(cc1OCCCCN1CCN(CCCCOc3cc4c(cc3OC)C(=O)N3CCC[C@H]3C=N4)CC1)N=C[C@@H]1CCCN1C2=O resulttype="Log LC 50" numericreadout=−4.60
chemicalsmiles=COc1cc2c(cc1OCCCCCN1CCN(CCCCCOc3cc4c(cc3OC)C(=O)N3CCC[C@H]3C=N4)CC1)N=C[C@@H]1CCCN1C2=O resulttype="Log LC 50" numericreadout=−4.54

###

Reported values of Log LC 50 for individual entries
# System: U251
# experimentDescription: NCI SRB cytotoxicity, CNS U251
# Type: cell-based, human
# conditionInfo: 48 h
resultType: Log LC 50 (mol/L)

chemicalsmiles=COc1cc2c(cc1OCCN1CCN(CCOc3cc4c(cc3OC)C(=O)N3CCC[C@H]3C=N4)CC1)N=C[C@@H]1CCCN1C2=O system=U251 resulttype="Log LC 50" numericreadout=−4.00
chemicalsmiles=COc1cc2c(cc1OCCCCN1CCN(CCCCOc3cc4c(cc3OC)C(=O)N3CCC[C@H]3C=N4)CC1)N=C[C@@H]1CCCN1C2=O system=U251 resulttype="Log LC 50" numericreadout=−4.41
chemicalsmiles=COc1cc2c(cc1OCCCCCN1CCN(CCCCCOc3cc4c(cc3OC)C(=O)N3CCC[C@H]3C=N4)CC1)N=C[C@@H]1CCCN1C2=O system=U251 resulttype="Log LC 50" numericreadout=−4.00
chemicalsmiles=COc1cc2c(cc1OCCCN1CCN(CCCOc3cc4c(cc3OC)C(=O)N3CCC[C@H]3C=N4)CC1)N=C[C@@H]1CCCN1C2=O system=U251 resulttype="Log LC 50" numericreadout=−4.00
